# assayed-system: Neuropeptide Y receptor type 5 (Homo sapiens)
# Sequence (Q15761 whole entry): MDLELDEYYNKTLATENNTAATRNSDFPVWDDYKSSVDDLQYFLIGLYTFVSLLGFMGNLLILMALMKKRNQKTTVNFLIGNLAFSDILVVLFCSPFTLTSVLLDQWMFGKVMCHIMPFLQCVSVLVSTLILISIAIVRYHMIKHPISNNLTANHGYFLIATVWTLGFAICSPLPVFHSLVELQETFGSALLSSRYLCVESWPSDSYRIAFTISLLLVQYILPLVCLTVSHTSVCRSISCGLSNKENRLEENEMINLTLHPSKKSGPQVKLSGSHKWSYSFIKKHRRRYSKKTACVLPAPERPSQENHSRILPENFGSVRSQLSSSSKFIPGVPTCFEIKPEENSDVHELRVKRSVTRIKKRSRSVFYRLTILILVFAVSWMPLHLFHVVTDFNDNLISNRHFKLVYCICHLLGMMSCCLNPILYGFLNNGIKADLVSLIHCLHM
pIC50: −log10 of the molar value.
The label depends only on pIC50: True if it is at least 6, False if it is smaller.

See these solved cases before continuing.
Cc1nc(NCC(F)(F)F)c2[nH]c(-c3ccccc3)cc2n1 False
Cc1nc(N2CCCCC2)c2sc(-c3ccccc3)cc2n1 True
Cc1nc(N2CCCCC2)c2nc(C3CCCCC3)cc-2[nH]1 True
COc1ccc(CCc2cc3[nH]c(C)nc(N4CCCCC4)c-3n2)cc1 True
CC(C)c1nc(N2CCCCC2)c2[nH]c(-c3ccccc3)cc2n1 False

# input Is the recorded value of pIC50 equal to or greater than 6 for this compound? `Cc1nc(N2CCCCC2)c2[nH]c(-c3ccccc3)c(F)c2n1`
# output False

# input Does the reported pIC50 for `Cc1nc(N2CCCCC2)c2[nH]c(-c3cccc(C(F)(F)F)c3)cc2n1` fall at or above the 6 mark?
# output True

# input Has `CC(=O)c1c(-c2ccccc2)[nH]c2c(N3CCCCC3)nc(C)nc12` a recorded pIC50 greater than or equal to 6?
# output False

# input API: above_or_equal(metric=pIC50, cutoff=6) for item `Cc1nc(N2CCCCC2)c2[nH]c(-c3ccccc3)nc2n1`
# output True

From: ChEMBL document CHEMBL1133512
